molecular target: CYP2C9 (Homo sapiens, UniProt P11712); construct: tissue Cyprotex Discovery Limited; host or cells: human liver microsomes; experiment: CYP panel inhibition, human liver microsomal assay (Cyprotex); format: in vitro ADME; conditions: human liver microsomes, isoform specific probe substrate
Sequence (P11712 whole entry, canonical isoform): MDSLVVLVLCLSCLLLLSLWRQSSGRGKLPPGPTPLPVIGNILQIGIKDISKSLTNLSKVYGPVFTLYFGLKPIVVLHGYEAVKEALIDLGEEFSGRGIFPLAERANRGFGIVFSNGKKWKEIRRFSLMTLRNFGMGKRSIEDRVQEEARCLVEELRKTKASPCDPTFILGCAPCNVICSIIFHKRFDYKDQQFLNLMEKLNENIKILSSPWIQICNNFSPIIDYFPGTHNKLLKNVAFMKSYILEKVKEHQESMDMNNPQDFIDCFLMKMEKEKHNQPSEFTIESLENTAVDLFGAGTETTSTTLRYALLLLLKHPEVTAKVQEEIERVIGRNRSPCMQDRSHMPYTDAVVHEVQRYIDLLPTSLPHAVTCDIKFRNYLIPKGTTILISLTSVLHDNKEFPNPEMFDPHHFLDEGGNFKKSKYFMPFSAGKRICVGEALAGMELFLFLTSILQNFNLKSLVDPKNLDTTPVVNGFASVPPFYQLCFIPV
Metric: pIC50
Give bare numbers, as −log10 of the molar value.

Req: Report pIC50 for CC#CCOc1ccc2cc(C(O)(c3ccc(Br)cc3)c3cccnc3)oc2c1 (stereo not shown) [Compound 10c] please.
Resp: 5.31

###

target: CYP2D6 (relative to CYP19A1) (Homo sapiens); assay: in vitro; details: Selectivity CYP19A1 compared with CYP2D6, ratio of CYP IC50 to CYP19A1 IC50
Sequence (P10635 whole entry): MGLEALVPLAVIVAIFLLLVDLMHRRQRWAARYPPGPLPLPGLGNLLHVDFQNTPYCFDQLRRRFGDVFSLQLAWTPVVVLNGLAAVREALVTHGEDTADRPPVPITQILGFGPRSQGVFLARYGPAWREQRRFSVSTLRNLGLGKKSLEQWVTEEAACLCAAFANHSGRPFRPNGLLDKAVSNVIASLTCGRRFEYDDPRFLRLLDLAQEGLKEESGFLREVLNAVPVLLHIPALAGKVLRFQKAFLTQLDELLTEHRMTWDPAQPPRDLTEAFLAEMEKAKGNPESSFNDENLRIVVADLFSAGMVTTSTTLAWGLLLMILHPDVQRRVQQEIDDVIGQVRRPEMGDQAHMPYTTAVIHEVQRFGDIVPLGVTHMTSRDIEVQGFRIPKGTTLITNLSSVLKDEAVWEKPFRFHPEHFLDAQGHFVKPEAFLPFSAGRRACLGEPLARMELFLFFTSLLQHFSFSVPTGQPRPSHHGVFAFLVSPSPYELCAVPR
Metric: selectivity ratio

Req: Quick one: selectivity ratio for CC#CCOc1ccc2cc(C(O)(c3ccc(Br)cc3)c3cccnc3)oc2c1 (stereo not shown) [Compound 10c] ?
Resp: > 30000
